Procedure summary: soluble fraction after stress (log2 fold change); higher = more stays soluble; pooled small domains, quantitative proteomics;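 note: 20 min heating vs room temperature control held 20 min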
Test conditions: stress: 75 degC
Reported metric: soluble fraction (log2)
Write no unit; give the number alone.

HMLLFNPGEVLKGFVLQSGTNNRVLLQIGDSRVIADTQTPLKAGEQLVLRVEETGPKTILQILG 0.177
HMRKKDGEAYVLPRPLKKGDSVLIYDIDKKGTVLQPPEKGGKTALIQAGIIQTRVPVSNLRLLE 0.537
HMGVTGYPNPTREHITWDDARRIEVWNAYGVPVADLRFARGVLDVAGWPVGTYVARIDGGRSVRFVVI -1.05

Look up soluble fraction (log2): HMIAASQVLRDARQRSRLTQAELGRRADVPQSVISAYESARREPSVDMLARLVAAAGFDLRIGLTP
-0.755

###

Listed here: items and their measured soluble fraction (log2).
Procedure summary: soluble fraction after stress (log2 fold change); higher = more stays soluble; pooled small domains, quantitative proteomics
Test conditions: stress: 75 degC
// return just the number, without any unit appended

Use these answered entries as a reference point.
HMLAIKKGGIFAILGPNGSGKSTFSKVLAGHPAYTVVDGDIFFKGLSILDLEPEERSHLGIFLAFQ -0.286
HMYAGTWTTESGQWKYRQDDGTYAKGWLQDTDGRWYYFDANGRMLSNTATPDGYQVGEDGAWVNH -0.338
HMSMDAVSLANRLLRFFQKRPGRKFTAADLAFETGMNERTGKSLVTSALEILSRTNQIEADGDGFRLKM 0.0354
HMTKQRSAIMNLLAERNTPLTAEEIGEAIAPSYPKLALSTVYRNLELFTNAGLLEKSFFQDGITRYSLTK -0.976
HMVSATKAFVNGGNIVVSSPKATRVAVYNVAGQKVAEQAFAGKATIKASDFAKGIYVLKFNDNTVLKLT -0.955

As a next step, examine the sequence that follows.
Item under review: HMAIVNVEVPSLVGKTEQEARNLLTEAGLKVNVVNDEDESKNDGVVLRQSKDAGTEVQEGTTITITVNKVS . Reported soluble fraction (log2)?
0.0932

###

Procedure summary: soluble fraction after stress (log2 fold change); higher = more stays soluble; pooled small domains, quantitative proteomics
Test conditions: stress: 75 degC
Param threshold (-0.7) applies to soluble fraction (log2); output rule met when value >= threshold, rule not met when value < threshold.

Consider the following illustrative entries.
HMEREQNIEHGRAIVERELKRLGLSDVYTIADIATALRHDDVDQFLAKIGFGDIQSTQIGGAIAALQQR rule met
HMYAMTAEDWIVSGNRKYINDDLQGAIADYTKAIEIDPNYAAIYLVRGKAKYELKNYQGAIEDYTKAIE rule not met
HMSPGAKIEVTGNTVNLRAGPGTNYDTRGQVKKGEQLPLLGEQGGWYRVQTSRGVAYLAGWLARVLT rule not met

Switching to the query record.
Could you verify whether the entry HMGVRVEVDAVTPPGAMASGSVVFSDGESKKWSVDQFGRLAMTGGAPDYKPSDQDVMEFQQQLEQSL shows soluble fraction (log2) of no less than -0.7?
rule met

###

Procedure summary: soluble fraction after stress (log2 fold change); higher = more stays soluble; pooled small domains, quantitative proteomics
Test conditions: stress: 75 degC
Reported metric: soluble fraction (log2)
Hey, just send me the number, nothing else.

Look over these answered cases.
HMRLREETRKVDKTGLIQVDGRHYRVPDEYSQKDVQILMDDNSIMVYRKGDFVIELDKETSVYMPH 0.347
HMKDLIGEAKAKELALGHAKLSASDVTFIHVELDWENGRRVYDVEFYSGAKEYDYEIDAKTGEIVSFDY -1.23
HMKGVTVDGDNITVDGEKQTLISVNKNLDGDVVSYTYRTADGKLRTSRNVEVAQEINKQQLLKSIDAQ 0.0529
HMPGTEAQDGEVLLDALRRIHPDSSTGTLRRMLTQGRVQVDGTTVHAAKAELTSGQHVEVVAR 0.136
HMNVNTHKTLILNSTFQPLSLATPQRALALLFSKKINVLKESDIKLRSVGQSVAIPKVAVLTYFVKA -0.409
HMVFTEEEMLEKIKEYLSTNSYINRRAMETLFNLRQSTALKWLGHFTEIGVLRKEGERNYPVYFLNN -0.972
HMRKMNDAVFYVEMSRPKRGYYTATYKLITRNPNSLPEHEITRRFFQMLEETIRKNPPYYLWTH -0.527

Which soluble fraction (log2) value is on record for HMLSPAQSLLLRTAARRPDGRVIPPDTLRGGARVKVLTSLLQRGWIEPVDGGHVLTDAGYAAIG ?
-0.819

###

Listing: soluble fraction (log2) of selected sequences
Procedure summary: soluble fraction after stress (log2 fold change); higher = more stays soluble; pooled small domains, quantitative proteomics
Test conditions: stress: 75 degC
Reply briefly: the number, and no unit.

Here is how some sequences turned out for soluble fraction (log2).
HMSAAELFEERQRQYLRGRKSTKNIADNHGTIILRAGETITDQAIDKAKVAGKLVELVMNNE 0.104
HMKLINEDLNNEIVFEENKVNLLVIENKKKFVQFIQEIIKQINGDEGKFSLFDINTELKIHDKIDII 0.174
HMNEQVAVVSGSQVNVRSGPGTTSAVVGQVSKGDNLPVLNQSGDWYQIKLPGGNAGWVAGWLVSLRPTT 0.0105
HMTDLALHIGKTLRELRQRRGWSLDKTAQATGVSKAMLGQIERGESSPTVVTLWRISSGLQASFSEFLPP -3.69
HMDSYSILGIEKESSMEDIEKAYIDKISKIKKEVKNEKNAAAFEAVLTKAYNDILSQKENISEEQELAE 0.0885

So what's the measured soluble fraction (log2) for this one? HMQQYLDAYDKALAFGIAMNKLPSYENLTLDDKEDVDKLKEIYDGMSNYEKTFVAKDFTDKLDRYVKRIE
0.347

Continue with HMETKKEIIEAINELEEKYRNAIYLTSIEKLSYEETSKILGQSLSNTKNLIHRGKQQLRKILIKK
-0.772

Can you check HMGTIRAPMPGTILKINVVDGDSVTKGDVLLILESMKMENSITSPKTGSVTSVYVSEGDPVQHGETLIDL next?
-0.196

###

Procedure summary: soluble fraction after stress (log2 fold change); higher = more stays soluble; pooled small domains, quantitative proteomics
Test conditions: stress: 75 degC
Binary classification by soluble fraction (log2), with -0.08 as an inclusive lower bound for class 1; all other cases are class 0.

HMSMNGNMIHATVIWKGRYFLVKMFFPQLTKPKRAEVQAQIEKAYPGSRVASYHITDYKPGEQFLHV class 0
HMRTVLSDETYLRIREMLLTHDIAPGERINIDALARELDVSQTPVREALARLESEDLVTKEPLRGYTATK class 1

// inclusive: soluble fraction (log2) at least -0.08? input: HMTVDTSELEEMIDDLIKEHPNEWERYSSGEKKVQGFFVGQVMKATSGQADGKAINQILSKRVKS
class 1

Moving on to the next sequence: HMGGEHPIPEDWAVNEANYEHGAKFYGYTRAHVDAEAQAFRDQYAANGKKYVDWDAHFRTFMRWQNERRYG
class 1

What about this sequence? HMTISDEAMQAGRDAFIQALVAMGAEKNADAMASIEKALSADPGNKEYLATRDLIKKSMGMKK
class 1

Could you do the same for HMTDFDWSLFTQQLKRFNLFLSYDDREKLQTFQTLYGLNELDLAEYVAKASAGEKNGLNFNYLRQLINKEK , please?
class 0

Next entry: HMKFGEQIKERRQELDLTQAEVAEKLFVTRQAVSNWEHNKTYPDLNMLVKISNVYQISLDSLLR
class 0

Same again, this time with HMTTEIVRMKKDVKIGQEITAKDIEVVEVGAYNLPDEVIRSSEEVVGKYVSSELLKGEYVLPSKISDTP
class 1

Note, next up: HMRPEVTEHLKTADAILHGGDINRQSIVDELRQYAPLYIVRGNNDKDWAEAIPHDLTVTLGGVTFFMVHNR
class 0

Then this sequence: HMIILDASASRAIGNGTIEETKWDFGNGESSTNRGGPIVERQIYANQAAYILKLSMKTNDGQLFTKEIQLL
class 1

Continue with HMGLYPYSGTPADNQEANERRIFDIYSTHLERIFSDFSGATLRTKRLVLRLMQELVHSDPVRMAGILDEL
class 1

Now the sequence HMGNLVDGINKKLTHVRDSLPEGYTLDEFKSAFQQQYPAAYDAYEGDKGKQFDKWLGNVIQSLPKK
class 1

Lookup HMPDPHSEARNIVLNQLNFMPRSRKELETALAKRNIEADVAKIVLDRFEEIGMVDDAAYAEL
class 1

Next up: HMEDETAKVLRLLAENNGYLPYNDKSDPTDIYAFFGMSKKAFKMTTGNLYKQKKIQFTQTGIQLIE
class 0

Same for HMGTRIQAVMEDIQSRIAARTYLPGTRLPSVRAQAQAMQVSVSTVVEAYERLAAEGVIASRPGSGFYVAGP
class 0

Next up: HMKKNNTTPIPKTLNYVNIKGLSNEAVERLNKHKPSTLGQASRLEGITPAATSLISIAIKKNQLLEKAES
class 1

# repeat for HMRTKEGLASQLEKIPGIGPVKRKALLKKFGSIDAIAAASKEELMLTDGITSSLADAIRDYF
class 1
